Each record here notes measured EC50.
# System: primary human fibroblasts derived from IPF patients (LL29 cells)
# PROTOCOL TEXT: Inhibition of fibrotic process: αSMA staining in TGF-β1 treated LL29 fibroblasts
# Format: cell-based
# ASSAY CONDITIONS: Fibroblast, 96 h, TGF-β1 20 ng/mL, 4 days, % cells positive for αSMA
READOUT: EC50 (µM)

>>> df
                                    compound  readout  quantity_unit  relation_sign  value_observed
 0  c1csc(-c2nccc3[nH]c(-c4n[nH]c5ccc(-c6cncnc6)nc45)cc23)c1 [Compound 363]     EC50             µM              =           0.529
 1  CN(C)c1cncc(-c2ccc3[nH]nc(-c4cc5c(-c6cccc(F)c6)nccc5[nH]4)c3n2)c1 [Compound 7]     EC50             µM              >              10
 2  Fc1ccccc1-c1nccc2[nH]c(-c3n[nH]c4ccc(-c5cncnc5)nc34)cc12 [Compound 83]     EC50             µM              >              10
 3  CS(=O)(=O)NCc1cc(F)cc(-c2nccc3[nH]c(-c4n[nH]c5ccc(-c6cncc(CN7CCC(F)(F)C7)c6)nc45)cc23)c1 [Compound 502]     EC50             µM              =           0.218
 4  Fc1cccc(-c2nccc3[nH]c(-c4n[nH]c5ccc(-c6cncc(OCc7ccccc7)c6)nc45)cc23)c1 [Compound 518]     EC50             µM              =            1.04
 5  O=C(Nc1cncc(-c2ccc3[nH]nc(-c4cc5c(-c6cccnc6)nccc5[nH]4)c3n2)c1)C1CCCC1 [Compound 106]     EC50             µM              =            1.32
 6  CCCCC(=O)Nc1cncc(-c2ccc3[nH]nc(-c4cc5c(N6CCCCC6)nccc5[nH]4)c3n2)c1 [Compound 187]     EC50             µM              =            2.22
 7  CS(=O)(=O)NCc1cc(F)cc(-c2nccc3[nH]c(-c4n[nH]c5ccc(-c6cncnc6)nc45)cc23)c1 [Compound 503]     EC50             µM              >              10
 8  Fc1cccc(-c2nccc3[nH]c(-c4n[nH]c5ccc(C6CCNCC6)nc45)cc23)c1 [Compound 505]     EC50             µM              =            2.71
 9  CCNCc1cncc(-c2ccc3[nH]nc(-c4cc5cnccc5[nH]4)c3n2)c1 [Compound 258]     EC50             µM              >              10
10  Fc1ccccc1-c1nccc2[nH]c(-c3n[nH]c4ccc(-c5cn[nH]c5)nc34)cc12 [Compound 539]     EC50             µM              =           0.033
11  Fc1ccc(-c2nccc3[nH]c(-c4n[nH]c5ccc(-c6cncc(OC7CCNCC7)c6)nc45)cc23)cc1 [Compound 528]     EC50             µM              =            1.44
12  Cc1ccncc1-c1ccc2[nH]nc(-c3cc4c(N5CCN(C)CC5)nccc4[nH]3)c2n1 [Compound 229]     EC50             µM              =           0.949
13  Cc1ccncc1-c1ccc2[nH]nc(-c3cc4c(-c5ccc(F)cc5)nccc4[nH]3)c2n1 [Compound 33]     EC50             µM              =             3.3
14  Cc1ccncc1-c1ccc2[nH]nc(-c3cc4c(-c5cc(F)cc(CNS(C)(=O)=O)c5)nccc4[nH]3)c2n1 [Compound 481]     EC50             µM              =           0.311
15  Fc1ccc(-c2nccc3[nH]c(-c4n[nH]c5ccc(-c6cncc(CN7CCC(F)(F)C7)c6)nc45)cc23)cc1 [Compound 54]     EC50             µM              =           0.521
16  CN1CCN(c2nccc3[nH]c(-c4n[nH]c5ccc(-c6cncc(CN7CCCCC7)c6)nc45)cc23)CC1 [Compound 239]     EC50             µM              =            1.51
17  CN1CCN(c2nccc3[nH]c(-c4n[nH]c5ccc(-c6cncc(NC(=O)CC7CCNCC7)c6)nc45)cc23)CC1 [Compound 641]     EC50             µM              =               5
18  FC1(F)CCN(Cc2cncc(-c3ccc4[nH]nc(-c5cc6cnccc6[nH]5)c4n3)c2)C1 [Compound 278]     EC50             µM              =           0.068
19  c1ccc(-c2ccc3[nH]nc(-c4cc5c(N6CCCCC6)nccc5[nH]4)c3n2)nc1 [Compound 196]     EC50             µM              =            0.27
